These entries and their values trace back to patent US7994172B2.

molecular target: human p70S6 kinase (p70S6K, kinase domain residues 1-421, T412E mutation) (Homo sapiens, UniProt P23443, T412E); construct: human p70S6 kinase domainresidues 1-421, containing a T412E mutation; assay: p70S6 kinase assay, Luciferase-Coupled Chemiluminescent Kinase assay (LCCA); conditions: 5 μM ATP, 12 nM p70S6K; read-out: p70S6K inhibition IC50
Sequence (P23443 1-421 T412E): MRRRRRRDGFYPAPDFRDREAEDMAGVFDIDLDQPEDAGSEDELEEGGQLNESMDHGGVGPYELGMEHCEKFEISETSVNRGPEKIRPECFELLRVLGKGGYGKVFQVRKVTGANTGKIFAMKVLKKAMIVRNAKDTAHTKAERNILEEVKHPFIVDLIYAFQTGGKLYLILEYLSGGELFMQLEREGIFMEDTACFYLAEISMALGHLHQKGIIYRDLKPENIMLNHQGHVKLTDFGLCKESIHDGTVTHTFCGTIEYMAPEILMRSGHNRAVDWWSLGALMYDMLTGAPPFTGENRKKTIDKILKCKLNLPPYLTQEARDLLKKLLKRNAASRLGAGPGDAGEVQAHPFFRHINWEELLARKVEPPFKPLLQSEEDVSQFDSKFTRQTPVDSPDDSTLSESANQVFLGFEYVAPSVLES
Attribute Measured: IC50

Take a look at these entries with their results.
Molecule	IC50
Brc1n[nH]c2ncnc(N3CCN(Cc4ccc5c(c4)OCO5)CC3)c12 [Entry 37]	< 50 nM
Clc1cc(CN2CCN(c3ncnc4[nH]nc(Br)c34)CC2)ccc1OCc1ccccc1 [Entry 80]	> 2000 nM

Give the measured IC50 of CCN(CC)CCN(C)C(c1ccc(Cl)cc1)C1CCN(c2ncnc3[nH]nc(Br)c23)CC1 (centres unmarked) [Entry 21] . < 50 nM

Then this molecule: Fc1ccc(CN2CCN(c3ncnc4[nH]nc(Br)c34)CC2)cc1 [Entry 34] < 50 nM

Then this molecule: CN(C)CCNC(=O)N(c1ccc(Cl)cc1)C1CCN(c2ncnc3[nH]nc(Br)c23)CC1 [Entry 12] < 50 nM

Then this molecule: Brc1n[nH]c2ncnc(N3CCN(Cc4ccc(-c5ccccc5)cc4)CC3)c12 [Entry 30] < 50 nM

* * *

Target: human Akt1 kinase (kinase domain residues R144-A480, activated with PDK1) (Homo sapiens)
Sequence (P31749 144-480): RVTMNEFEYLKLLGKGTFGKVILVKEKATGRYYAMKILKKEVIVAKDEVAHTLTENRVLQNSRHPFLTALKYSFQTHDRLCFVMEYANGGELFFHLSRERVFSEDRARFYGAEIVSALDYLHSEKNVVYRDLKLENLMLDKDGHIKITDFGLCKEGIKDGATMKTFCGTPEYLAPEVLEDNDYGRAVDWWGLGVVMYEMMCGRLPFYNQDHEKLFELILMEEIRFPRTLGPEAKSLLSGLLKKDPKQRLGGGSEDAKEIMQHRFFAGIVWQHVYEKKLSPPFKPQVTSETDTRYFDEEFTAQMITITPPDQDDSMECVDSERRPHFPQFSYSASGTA
Assay: Akt1 kinase assay, Luciferase-Coupled Chemiluminescent Kinase assay (LCCA)
Conditions: 1 μM ATP, 1.3 nM Akt1; read-out: Akt-1 inhibition IC50
Method: Kinase activity and compound inhibition are investigated using one or more of the three assay formats described below. The ATP concentrations for each assay are selected to be close to the Michaelis-Menten constant (KM) for each individual kinase. […] Biochemical activity of Akt1 kinase was assessed using a Luciferase-Coupled Chemiluminescent Kinase assay (LCCA) format. Kinase activity was measured as the percent ATP remaining following the kinase reaction. […]
pIC50: −log10 of the molar value.
Attribute Measured: pIC50

Compound	Attribute Measured	Observed Measurement
Brc1n[nH]c2ncnc(N3CCN(Cc4ccccc4)CC3)c12	pIC50	< 5.70

Give the measured pIC50 of OCC1CN(c2ncnc3[nH]nc(Br)c23)CCN1Cc1ccc(Cl)cc1 (stereo not drawn) . 6.30 to 7.30

Then this compound: CN(C)c1ccc(CN2CCN(c3ncnc4[nH]nc(Br)c34)CC2)cc1 < 5.70

Then this compound: O=C(CN1CCN(c2ncnc3[nH]nc(Br)c23)CC1)Nc1ccccn1 < 5.70

Then this compound: Clc1ccc([C@H](OCCN2CCCCC2)C2CCN(c3ncnc4[nH]nc(Br)c34)CC2)cc1 > 7.30

Then this compound: COCCCN1CCN(c2ncnc3[nH]nc(Br)c23)CC1 < 5.70

Then this compound: CCN(CC)CCC(=O)N(c1ccc(Cl)cc1)C1CCN(c2ncnc3[nH]nc(Br)c23)CC1 > 7.30

Then this compound: CC(c1ccccc1)N1CCN(c2ncnc3[nH]nc(Br)c23)CC1 (stereo not drawn) < 5.70

Then this compound: CN(C)CCOCC1CN(c2ncnc3[nH]nc(Br)c23)CCN1Cc1ccc(Cl)cc1 (stereo not drawn) < 5.70

* * *

Entries and their measured IC50 follow.
biological target: human Akt1 kinase (kinase domain residues R144-A480, activated with PDK1) (Homo sapiens); assay: Akt1 kinase assay, Luciferase-Coupled Chemiluminescent Kinase assay (LCCA); settings: 1 μM ATP, 1.3 nM Akt1; read-out: Akt-1 inhibition IC50

Take a look at these entries with their results.
Compound	IC50
Fc1ccc(CN2CCN(c3ncnc4[nH]nc(Br)c34)CC2)c(Cl)c1	> 2000 nM
COc1cc(OC)nc(C(c2ccccc2)N2CCN(c3ncnc4[nH]nc(Br)c34)CC2)n1 (stereo not shown)	> 2000 nM
Clc1ccccc1CN1CCN(c2ncnc3[nH]nc(Br)c23)CC1	> 2000 nM
Clc1ccc(NC2CCN(c3ncnc4[nH]nc(Br)c34)CC2)cc1	> 2000 nM
CCc1n[nH]c2ncnc(N3CCC([C@@H](OCCN(C)C)c4ccc(Cl)cc4)CC3)c12	< 50 nM
Brc1n[nH]c2ncnc(N3CCN(Cc4ccc(OCc5ccccc5)cc4)CC3)c12	> 2000 nM

Give the measured IC50 of O=C(c1ccc(Cl)cc1)C1CCN(c2ncnc3[nH]nc(Br)c23)CC1 . 500 to 2000 nM

Then this compound: COc1ccc(CN2CCN(c3ncnc4[nH]nc(Br)c34)CC2)cc1 500 to 2000 nM

Then this compound: CCN(CC)CCN(c1ccc(Cl)cc1)C1CCN(c2ncnc3[nH]nc(Br)c23)CC1 < 50 nM

Then this compound: CN(C)CCCC(c1ccc(Cl)cc1)C1CCN(c2ncnc3[nH]nc(Br)c23)CC1 (stereo not shown) < 50 nM
